Record form. Attribute: Dmax. Fill in for each entry.
# SUBJECT OF TEST: IRAK4 (Homo sapiens)
# Construct: endogenous in cells; host or cells: Karpas299
# Sequence (Q9NWZ3 whole entry): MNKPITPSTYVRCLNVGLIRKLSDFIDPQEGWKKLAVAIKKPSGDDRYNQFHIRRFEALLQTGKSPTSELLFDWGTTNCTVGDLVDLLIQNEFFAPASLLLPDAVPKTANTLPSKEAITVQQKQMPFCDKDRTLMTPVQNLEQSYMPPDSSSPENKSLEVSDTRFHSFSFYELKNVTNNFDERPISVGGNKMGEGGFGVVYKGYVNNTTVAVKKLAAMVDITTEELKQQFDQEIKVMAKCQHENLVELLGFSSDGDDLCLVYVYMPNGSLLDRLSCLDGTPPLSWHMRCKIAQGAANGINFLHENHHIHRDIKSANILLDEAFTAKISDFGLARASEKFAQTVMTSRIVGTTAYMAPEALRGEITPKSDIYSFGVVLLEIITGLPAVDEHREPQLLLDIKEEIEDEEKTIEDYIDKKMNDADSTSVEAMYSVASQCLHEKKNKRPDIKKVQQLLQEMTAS
# ASSAY PROTOCOL: IRAK4 Degradation Assay (Karpas299, HTRF/TR-FRET)
# Format: cell-based
# ASSAY CONTEXT: Karpas-299 cells, 24 h treatment; maximum percentage of degradation; read-out: IRAK4 in Karpas-299 (24 h) Dmax (%)
Write the number in % without appending the unit.

Query block: Query for IRAK4 (Homo sapiens): what Dmax does the record show for CC(C)(O)c1cc2nn(C3CCN([C@@H]4CCN(C5CCN(c6cc(F)c([C@H]7CCC(=O)NC7=O)c(F)c6)CC5)CC4(F)F)CC3)cc2cc1NC(=O)c1ccc2cc(C#N)cnn12 ?
Result block: 97

Query block: API: value(readout=Dmax, system=IRAK4 (Homo sapiens)) for record O=C1CCN(c2ccc(N3CC[C@H](C(=O)N4CCN([C@H]5CC[C@H](n6cc(NC(=O)c7coc(-c8ccnc(NCC9CC9)c8)n7)c(C(F)F)n6)CC5)CC4)C3)cc2)C(=O)N1
Result block: 90

Query block: Enter reported Dmax observed with IRAK4 (Homo sapiens) for CCC(C)c1cc(-c2nc(C(=O)Nc3cn([C@H]4CC[C@H](N5CCN(C(=O)[C@@H]6CCN(c7cc(F)c([C@H]8CCC(=O)NC8=O)c(F)c7)C6)CC5)CC4)nc3C(F)F)co2)ccn1 (stereo partly shown)
Result block: 96

Query block: Please tell me: Dmax of CC(C)(O)c1cc2nn([C@H]3CC[C@H](N4CCN(CC5CN(c6cc(F)c(N7CCC(=O)NC7=O)c(F)c6)C5)CC4)CC3)cc2cc1NC(=O)c1ccc2cc(C#N)cnn12 , system IRAK4 (Homo sapiens)?
Result block: 97

Query block: Tell me reported Dmax for CC(C)(O)c1cc2nn(C34CC(N5CCN(CCC6CCN(c7cc(F)c([C@H]8CCC(=O)NC8=O)c(F)c7)CC6)CC5)(C3)C4)cc2cc1NC(=O)c1ccc2cc(C#N)cnn12 , tested with IRAK4 (Homo sapiens).
Result block: 97

Query block: Give the reported Dmax for C[C@H]1CN(C2CCN(c3cc(F)c([C@H]4CCC(=O)NC4=O)c(F)c3)CC2)CCN1[C@H]1CC[C@H](n2cc3cc(NC(=O)c4ccc5cc(C#N)cnn45)c(C(C)(C)O)cc3n2)CC1 (system: IRAK4 (Homo sapiens)).
Result block: 100

Query block: Request - read-out Dmax | tested on IRAK4 (Homo sapiens) | compound CC(C)(O)c1cc2nn([C@H]3CC[C@H](N4CCN([C@H]5CCN(c6ccc(N7CCC(=O)NC7=O)cc6)C5)CC4)CC3)cc2cc1NC(=O)c1ccc2cc(C#N)cnn12
Result block: 87

Query block: Recorded Dmax for NC(=O)c1nn(-c2ccc(N3CCN(C(=O)[C@@H]4CCN(c5cc(F)c([C@H]6CCC(=O)NC6=O)c(F)c5)C4)CC3)nc2)cc1NC(=O)c1coc(-c2ccnc(NCC(F)(F)F)c2)n1 with IRAK4 (Homo sapiens), please?
Result block: 96

Query block: Fill in the recorded Dmax for this compound, with IRAK4 (Homo sapiens) as test system: O=C1CCN(c2ccc(N3CC[C@@H](C(=O)N4CCN([C@H]5CC[C@H](n6cc(NC(=O)c7coc(-c8ccnc(NCC9CC9)c8)n7)c(C(F)F)n6)CC5)CC4)C3)cc2)C(=O)N1
Result block: 95

Query block: Identify the measured Dmax of Cc1cc(C2CCC(=O)NC2=O)c(F)cc1[C@H]1C[C@@H](N2CCN([C@H]3CC[C@H](n4cc5cc(NC(=O)c6ccc7cc(C#N)cnn67)c(C(C)(C)O)cc5n4)CC3)CC2)C1 (stereo partly shown) for IRAK4 (Homo sapiens).
Result block: 97
